tested on: female C57BL/6 mice; assay: Protein expression efficiency of fLuc mRNA-LNPs after intramuscular injection (IVIS whole-body luminescence); format: in vivo; settings: fLuc mRNA-LNP, intramuscular injection, luminescence at injection site, after administration, mice
experimental.readout: Total flux
Reply briefly: the number, and no unit.

Please review the entries below; each comes with its answer.
compound	Total flux
CCCCCCCCCCCOC(=O)CCCCCN(CCCCCCCC(=O)OC(CCCCCCCC)CCCCCCCC)CC(O)CCCCNC(=O)c1[nH]ccc1O (stereo not drawn)	1.25E+07
CCCCCCCCCCCOC(=O)CCCCCN(CCCCCCCC(=O)OC(CCCCCCCC)CCCCCCCC)CC(O)CCCCNC(=O)c1cc[nH]c1 (stereo not drawn)	1.00E+07
CCCCCCCCCCCOC(=O)CCCCCN(CCCCCCCC(=O)OC(CCCCCCCC)CCCCCCCC)CC(O)CCCCNC(=O)c1nccn1C (stereo not drawn)	1.03E+07
CCCCCCCCCCCOC(=O)CCCCCN(CCCCCCCC(=O)OC(CCCCCCCC)CCCCCCCC)CC(O)CCCCNC(=O)c1cccn1C (stereo not drawn)	1.70E+06
CCCCCCCCCCCOC(=O)CCCCCN(CCCCCCCC(=O)OC(CCCCCCCC)CCCCCCCC)CC(O)CCCCNC(=O)c1cn(C)cn1 (stereo not drawn)	2.32E+06
CCCCCCCCCCCOC(=O)CCCCCN(CCCCCCCC(=O)OC(CCCCCCCC)CCCCCCCC)CC(O)CCCCNC(=O)c1cncn1C (stereo not drawn)	2.13E+06

Report Total flux on female C57BL/6 mice for this entry: CCCCCCCCCCCOC(=O)CCCCCN(CCCCCCCC(=O)OC(CCCCCCCC)CCCCCCCC)CC(O)CCCCNC(=O)c1c(O)ccn1C (stereo not drawn) 7.85E+06

Report Total flux on female C57BL/6 mice for this entry: CCCCCCCCCCCOC(=O)CCCCCN(CCCCCCCC(=O)OC(CCCCCCCC)CCCCCCCC)CC(O)CCCCNC(=O)c1ccc[nH]1 (stereo not drawn) 1.61E+07

###

assay: Stability of mRNA-LNPs according to storage temperature and duration; assay type: physicochemical; details: fLuc mRNA-LNP stored at 25° C., day 7
PDI D-7 listing for selected compounds.
Reply briefly: the number, and no unit.

Please review the entries below; each comes with its answer.
compound	experimental.readout	obs.value
CCCCCCCCCCCOC(=O)CCCCCN(CCCCCCCC(=O)OC(CCCCCCCC)CCCCCCCC)CC(O)CCCCNC(=O)c1cncn1C (stereo not drawn) [Compound 38]	PDI D-7	0.093
CCCCCCCCCCCOC(=O)CCCCCN(CCCCCCCC(=O)OC(CCCCCCCC)CCCCCCCC)CC(O)CCCCNC(=O)c1c[nH]cn1 (stereo not drawn) [Compound 34]	PDI D-7	0.139
CCCCCCCCCCCOC(=O)CCCCCN(CCCCCCCC(=O)OC(CCCCCCCC)CCCCCCCC)CC(O)CCCCNC(=O)c1nccn1C (stereo not drawn) [Compound 36]	PDI D-7	0.123
CCCCCCCCCCCOC(=O)CCCCCN(CCCCCCCC(=O)OC(CCCCCCCC)CCCCCCCC)CC(O)CCCCNC(=O)c1c(O)ccn1C (stereo not drawn) [Compound 24]	PDI D-7	0.163
CCCCCCCCCCCOC(=O)CCCCCN(CCCCCCCC(=O)OC(CCCCCCCC)CCCCCCCC)CC(O)CCCCNC(=O)c1ccn(C)c1 (stereo not drawn) [Compound 19]	PDI D-7	0.107

Read off the recorded PDI D-7 for CCCCCCCCCCCOC(=O)CCCCCN(CCCCCCCC(=O)OC(CCCCCCCC)CCCCCCCC)CC(O)CCCCNC(=O)c1ccc[nH]1 (stereo not drawn) [Compound 16] 0.059

Data credit: patent US20260184669A1
